Data credit: the supplement of paper PMC8728848

Overview of recorded glycan array binding signal (z-score) for various binders
- Assay System: GlcNAc(a1-4)Gal(b1-4)GlcNAc(b1-3)Gal(b1-4)[Fuc(a1-3)]GlcNAc(b1-3)Gal(b1-4)[Fuc(a1-3)]GlcNAc
- Assay Protocol: glycan array binding signal (z-score within array); higher = stronger binding
- Measurement Conditions: glycan notation: IUPAC condensed, linker removed
Many of the other results were omitted from the sample, so the strongest signals are more common in it than they were.
Write no unit; give the number alone.

Answered cases to consult:
Binder	Experimental Value
BSR4 (Toxoplasma gondii), Q95NL6 (protein) MVMMGSMQQRRGGLRSNARQLLAVCMSGVVFFSSGQAVADNLLEGLLHRTLQQQVEVTSRLTVAGSDAKCDFFTPATQDSPPVSGSLTLSKGRMTATFECSATQALSISTIPTNIEQNVCDPKKTTNGTVCQFGANGSAGTEVTLKDLLETDRIVNWKVNEQREESNKSQKWSLELHNEDLPLTDKAFVVGCQATSAARGTESGKTAACKLTVNVEARASSLAENNVVTCAYGKGSNPNPVEVEMSTEKNTLTINCGSDGSLQPTTYAEEYCVADSKDVNRCSTTRFVEIFPKFLKSWWVTETQKRTSATLTIPQTDLPEADQQFLVGCVPKKTAPEDPKKDKESGTETGAPTSCTVLVTVKAASSASHASPTVQILAAASSAAA	1.8
Ecp6 (Cladosporium fulvum), B3VBK9 (protein) MQSMILFAAALMGAAVNGFVLPRTDDPDCETKATDCGSTSNIKYTVVKGDTLTSIAKKFKSGICNIVSVNKLANPNLIELGATLIIPENCSNPDNKSCVSTPAEPTETCVPGLPGSYTIVSGDTLTNISQDFNITLDSLIAANTQIENPDAIDVGQIITVPVCPSSQCEAVGTYNIVAGDLFVDLAATYHTTIGQIKALNNNVNPSKLKVGQQIILPQDCKNVTTAVA	-0.002
PEB3 (Campylobacter jejuni), Q0PBL7 (protein) MKKIITLFGACALAFSMANADVNLYGPGGPHTALKDIANKYSEKTGVKVNVNFGPQATWFEKAKKDADILFGASDQSALAIASDFGKDFNVSKIKPLYFREAIILTQKGNPLKIKGLKDLANKKVRIVVPEGAGKSNTSGTGVWEDMIGRTQDIKTIQNFRNNIVAFVPNSGSARKLFAQDQADAWITWIDWSKSNPDIGTAVAIEKDLVVYRTFNVIAKEGASKETQDFIAYLSSKEAKEIFKKYGWRE	3.7

Now consider the entry below.
Briefly, glycan array binding signal (z-score) measured for LF82 (Escherichia coli) (protein) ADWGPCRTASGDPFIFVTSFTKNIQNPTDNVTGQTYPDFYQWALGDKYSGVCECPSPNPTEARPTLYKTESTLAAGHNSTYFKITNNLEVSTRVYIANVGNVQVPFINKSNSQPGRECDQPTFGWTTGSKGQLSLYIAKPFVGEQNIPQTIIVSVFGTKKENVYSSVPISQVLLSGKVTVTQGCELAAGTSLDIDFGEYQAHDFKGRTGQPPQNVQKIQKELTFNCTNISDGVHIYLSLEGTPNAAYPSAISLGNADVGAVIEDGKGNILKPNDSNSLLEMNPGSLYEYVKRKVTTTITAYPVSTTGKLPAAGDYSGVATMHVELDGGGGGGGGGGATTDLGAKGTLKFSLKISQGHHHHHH : 3.63
